Test system: J4(1b) NS5A recombinant
Assay: BMS-790052 treatment of infected cultures
Type: cell-based
Settings: Hepatitis C virus; genotype 1b, isolate J4 NS5A recombinant; read-out: NS5A inhibitor, EC50 (nM), original
measurement_name: EC50 (nM)
Numbers only; they are read as nM.

# query: EC50 of entry `COC(=O)N[C@H](C(=O)N1CCC[C@H]1c1nc(-c2ccc(-c3ccc(-c4c[nH]c([C@@H]5CCCN5C(=O)[C@@H](NC(=O)OC)C(C)C)n4)cc3)cc2)c[nH]1)C(C)C`
0.009

---

Tested on: J4(1b)-Y93H
Experiment: BMS-790052 treatment of infected cultures
Assay type: cell-based, hepatitis C virus
Settings: Hepatitis C virus; J4(1b), NS5A mutation Y93H; read-out: NS5A inhibitor, EC50 (nM), putative resistance mutant
Experimental: 5×10^3 naïve Huh7.5 cells were plated per well in a poly-D-lysine coated 96-well plate (Nunc, Roskilde, D K) one day before infection with different recombinant viruses. […] In parallel, cell viability was monitored with CellTiter™ 96 AQueous One Solution Cell Proliferation Assay (Promega, Madison, Wis. USA). The number of single infected cells was determined by automated counting of individual wells as described above. […]
measurement_name: EC50 (nM)
Note: unit nM is implicit; provide only the numeric part.

GET /values?readout=EC50&system=J4(1b)-Y93H&item= `COC(=O)N[C@H](C(=O)N1CCC[C@H]1c1nc(-c2ccc(-c3ccc(-c4c[nH]c([C@@H]5CCCN5C(=O)[C@@H](NC(=O)OC)C(C)C)n4)cc3)cc2)c[nH]1)C(C)C`
0.77

---

Tested on: HCV NS5A genotype 1-7 recombinants
Assay: BMS-790052 treatment of infected cultures, high-throughput assay
Format: cell-based
Settings: Hepatitis C virus, most isolates
pEC50: −log10 of the molar value.
measurement_name: pEC50

Request: pEC50, test system HCV NS5A genotype 1-7 recombinants, entry COC(=O)N[C@H](C(=O)N1CCC[C@H]1c1nc(-c2ccc(-c3ccc(-c4c[nH]c([C@@H]5CCCN5C(=O)[C@@H](NC(=O)OC)C(C)C)n4)cc3)cc2)c[nH]1)C(C)C [BMS-790052]
> 10.00

---

System: J6(2a)-Y93H
Test: BMS-790052 treatment of infected cultures
Format: cell-based, hepatitis C virus
Details: Hepatitis C virus; J6(2a), NS5A mutation Y93H; read-out: NS5A inhibitor, EC50 (nM), putative resistance mutant
measurement_name: EC50 (nM)
Report as a plain number; the unit nM is understood.

Param item = COC(=O)N[C@H](C(=O)N1CCC[C@H]1c1nc(-c2ccc(-c3ccc(-c4c[nH]c([C@@H]5CCCN5C(=O)[C@@H](NC(=O)OC)C(C)C)n4)cc3)cc2)c[nH]1)C(C)C [BMS-790052] ; retrieve measured EC50.
2000

---

System: J6/JFH1 with JFH1 NS5A domain I exchanged to the J6 sequence
Assay: BMS-790052 treatment of infected cultures
Type: cell-based, hepatitis C virus
Conditions: Hepatitis C virus; genotype 2a, J6 (domain I); single experiment of three replicates; read-out: NS5A inhibitor, EC50 (nM), original
measurement_name: EC50 (nM)
// note: answer is a bare numeric in nM

Give the measured EC50 of `COC(=O)N[C@H](C(=O)N1CCC[C@H]1c1nc(-c2ccc(-c3ccc(-c4c[nH]c([C@@H]5CCCN5C(=O)[C@@H](NC(=O)OC)C(C)C)n4)cc3)cc2)c[nH]1)C(C)C` .
19

---

Test system: J1(1a) NS5A recombinant
Experiment: BMS-790052 treatment of infected cultures
Assay type: cell-based
Details: Hepatitis C virus; J1(1a); read-out: EC50
measurement_name: EC50 (nM)
// units = nM; emit number, no label

So what's the measured EC50 for this one? COC(=O)N[C@H](C(=O)N1CCC[C@H]1c1nc(-c2ccc(-c3ccc(-c4c[nH]c([C@@H]5CCCN5C(=O)[C@@H](NC(=O)OC)C(C)C)n4)cc3)cc2)c[nH]1)C(C)C [BMS-790052]
1.1

The measured values listed here are drawn from patent US9388389B2.
